The values you see were collected from patent US20030143647A1.

- tested.system: T1, HLA-A2.1 molecules on T2 cells (human)
- T1 construct: MHC class I molecule on the surface of T2 cells; also called HLA-A*0201
- assay.overview: HLA class I stabilization assay on T2 cells, MA2.1 staining, flow cytometry
Threshold check on HLA-A2.1 Binding (X-Fold increase of MFI): strictly below 2 fold is True; on or above 2 fold is False.

These recorded examples may help you get a feel for the data.
{"binder": "AGYLMELCC (also called P4) [Cyclin B1 peptide from the tumor, SEQ ID NO: 4 (AGYLMELCC)]", "assigned.label": "True"}
{"binder": "AGYLMELCF (Synthesized by F-moc chemistry, with leucine at positions 4 and 7; also called P3) [Cyclin B1 peptide from the tumor, SEQ ID NO: 3 (AGYLMELCF)]", "assigned.label": "True"}
{"binder": "AGYLMELCV (Synthesized by F-moc chemistry, with leucine at positions 4 and 7; also called P1) [Cyclin B1 peptide from the tumor, SEQ ID NO: 1 (AGYLMELCV)]", "assigned.label": "True"}

Q: Lab note: confirm whether the reported HLA-A2.1 Binding (X-Fold increase of MFI) for this binder is below 2 fold, equality not counting. binder: AKYLMELTM (also called HeLa-derived cyclin B1 peptide) [Human cyclin B1 peptide from the database, SEQ ID NO: 7 (AKYLMELTM)]
A: False

Q: Next binder up: AGYLMELCFA (Synthesized by F-moc chemistry, with leucine at positions 4 and 7) [Cyclin B1 peptide from the tumor, SEQ ID NO: 6 (AGYLMELCFA)]
A: False

Q: Next binder up: AGYLMELCM (Synthesized by F-moc chemistry, with leucine at positions 4 and 7; also called P2) [Cyclin B1 peptide from the tumor, SEQ ID NO: 2 (AGYLMELCM)]
A: True

Q: Next binder up: AKYLMELTML (also called HeLa-derived cyclin B1 peptide) [Human cyclin B1 peptide from the database, SEQ ID NO: 8 (AKYLMELTML)]
A: False

Q: Next binder up: AGYLMELCMA (Synthesized by F-moc chemistry, with leucine at positions 4 and 7) [Cyclin B1 peptide from the tumor, SEQ ID NO: 5 (AGYLMELCMA)]
A: True
